# System: HCT-15
readout: GI50

O=c1cccccc1NCCNc1cccccc1=O    > 100 µM
CCOc1ccccc1NC(=O)C(=O)C1C(=O)Nc2ccccc2[S+]1[O-] (stereo unspecified)    > 100 µM
CSc1ccc(NC(=O)Nc2cc(C)ccn2)cc1    > 100 µM
Cc1cc(Br)cc(C)c1NC(=O)C(=O)Nn1c(S)nc2ccccc2c1=O    > 100 µM
N#CC(C#N)=C(N)/C(C#N)=C/c1ccc2[nH]ccc2c1    > 100 µM
C[C@H]1CC[C@@H]2[C@@H](C)[C@H]3[C@H](C[C@H]4[C@@H]5CC=C6C[C@@H](O)CC[C@]6(C)[C@H]5C[C@H](O)[C@]34C)N2C1    > 100 µM
C#Cc1nc(N)c2ncn(C3OC(COS(N)(=O)=O)C(O)C3O)c2n1 (stereo unspecified)    < 0.0214 µM
COc1cc(C(=O)N(C)N(C)C)cc(OC)c1OC    > 10 µM
CCCC(=O)NC(NC1CCCCC1)(C(=O)OCC)C(F)(F)F (stereo unspecified)    > 100 µM
O=c1cnn2c(n1)sc1ccc3ccccc3c12    > 100 µM

Now consider the entry below.
Summary: `COC1=CCC=C(C[C@@H]2NCCc3cc(OC)c(OC)cc32)C1` , HCT-15, GI50 = > 100 µM

----------
# System: M14
# protocol: NCI tumour cell line growth inhibition, 48 h
Activity calls are given as the source filed them. Cut-off read from the data, not from the text of the source: active = GI50 up to about 1.1 µM and inactive = higher.
readout: GI50

COc1cc(C(C)c2cc3c(cc2OCCCCCOc2cc4c(cc2C(C)c2cc(OC)c(OC)c(OC)c2)OCO4)OCO3)cc(OC)c1OC (configuration not stated)    > 100 µM (inactive)
C#CCN(C(=O)C(F)(F)F)c1ccc(C(=O)c2ccc(N(CC#C)C(=O)C(F)(F)F)cc2)cc1    33.2 µM (inactive)
Cc1c(C)c2c(c(N)c1C#N)C(=O)N(OS(=O)(=O)c1ccccc1)C2=O    19.5 µM (inactive)

Form field GI50 for item `O=C1C(Cl)=C(NCCCN2CCOCC2)C(=O)c2c(O)ccc(O)c21` on M14: 1.96 µM (inactive)

# value of GI50, M14, item `COc1cc(/C=C\c2ccccn2)cc(OC)c1OC` = 55.6 µM (inactive)

Recorded GI50 for COc1ccc(-c2c(C#N)c(=O)nc(SC)n2C2OCC(OC(C)=O)C(OC(C)=O)C2OC(C)=O)cc1 (configuration not stated) on M14 was > 100 µM (inactive)

Here `CNc1cccc(-c2cc(O)c3cc4c(cc3n2)OCO4)c1` was tested on M14, and its GI50 came to 0.224 µM (active)

M14 GI50 of CC(=O)OCC(OC(C)=O)C(OC(C)=O)C(/C=N\Nc1nc2ccccc2c(=O)[nH]1)=N\Nc1nc2ccccc2c(=O)[nH]1 (configuration not stated) is > 100 µM (inactive)

----------
# System: T47D
# protocol: NCI tumour cell line growth inhibition, 48 h
Calls of active or inactive are those of the source. Rule as the data show it: active = GI50 up to about 1.1 µM and inactive = higher.
readout: GI50

Please review the entries below; each comes with its answer.
CC(C)[C@H](NC(=O)[C@@H](O)[C@H](N)Cc1ccccc1)C(=O)N[C@@H](Cc1ccccc1)C(=O)O    > 100 µM (inactive)
CCN1CCC(O)(/C=C/c2ccccc2C)C(C(=O)/C=C/c2ccccc2C)C1 (centres undefined)    1.85 µM (inactive)
Clc1ccc(/N=C/C=C/Nc2ccc(Cl)cn2)nc1    18.3 µM (inactive)

Could you now consider this next molecule?
`CN(C(=O)c1ccc2c(c1)sc1c(=O)n(C)c3ccccc3c12)c1ccccc1` has a reported GI50 of > 100 µM (inactive)

----------
# System: EKVX
# protocol: NCI tumour cell line growth inhibition, 48 h
Active and inactive are the calls of the source. Cut-off read from the data, not from the text of the source: active = GI50 up to about 1.1 µM and inactive = higher.
In this section we review reported GI50 values for a set of molecules.

Cc1ccc(/N=N/c2c(O)c3ccccc3[nH]c2=O)c(S(=O)(=O)N(C)C)c1    > 100 µM (inactive)
CC1(C)N=c2c(ncn2-c2ccccc2)=C(C(N)=O)N1    > 100 µM (inactive)
C#CCN(C(=O)C(F)(F)F)c1ccc(C(=O)c2ccc(N(CC#C)C(=O)C(F)(F)F)cc2)cc1    61 µM (inactive)
CCN(CC)Cc1ccc2cccnc2c1O    2.24 µM (inactive)
O=[N+]([O-])c1ccc(/C=N/Nc2nnc3c4ccccc4c4ncccc4c3n2)o1    > 10 µM (inactive)

Per the record, O=P1(C(O)c2ccccc2)N(Cc2ccccc2)[C@@H]2CCCC[C@H]2N1Cc1ccccc1 (stereo partly specified) has GI50 of 30.5 µM (inactive)

----------
# System: HCT-116
# protocol: NCI tumour cell line growth inhibition, 48 h
Activity calls are given as the source filed them. Cut-off read from the data, not from the text of the source: active = GI50 up to about 1.1 µM and inactive = higher.
Measured GI50 of individual entries

// worked examples, GI50 included
COc1ccc(-c2onc(-c3c(C)cc(C)cc3C)c2C2=NCCCN2)cc1    28 µM (inactive)
O=P1(C(O)c2ccccc2)N(Cc2ccccc2)[C@@H]2CCCC[C@H]2N1Cc1ccccc1 (some centres not stated)    27.4 µM (inactive)
CCCCCCCCCC(=O)CC(=O)c1ccc(O)cc1O    26.1 µM (inactive)
Cc1nc(C)c(N2CCN(Cc3ccccc3)CC2)c(O)n1    > 100 µM (inactive)
COC1(OC)CC2C(=O)N(Cc3ccccc3)C1CC2S(=O)(=O)c1ccccc1 (configuration not stated)    > 100 µM (inactive)

According to the records, this molecule `C=C1CC2(OC1=O)c1ccccc1C=Cc1ccccc12` displays GI50 of 1.73 µM (inactive)

Lookup result for CC12CCC(CC(=O)/C1=C(/Br)I)C2(C)C (configuration not stated) ; measured GI50: 12.4 µM (inactive)

----------
# Test system: TK-10
# protocol: NCI tumour cell line growth inhibition, 48 h
The source made the active and inactive calls. No stated cut-off is given here; in the data, active = GI50 up to about 1.1 µM and inactive = higher.
// reported GI50 for each item listed

Here's what some known entries look like.
O=C(CC(=O)Nc1ccc(Cl)cc1)NNCC(=O)Nc1nc(-c2ccccc2)cs1    > 100 µM (inactive)
COC(=O)c1c2n(c3ccccc13)C[C@H]1OC(C)(C)O[C@@H]21    > 100 µM (inactive)
Cn1ccc(C(=O)NCCN(CCNC(=O)c2ccn(C)c(=O)c2O)CCNC(=O)c2ccn(C)c(=O)c2O)c(O)c1=O    > 100 µM (inactive)

Per the record, `C(/C=N/c1ccccc1)=C(/Nc1ccccc1)C12CC3CC(CC(C3)C1)C2` has GI50 of 21.4 µM (inactive)

Short answer for `O=C(O)c1cc(NC2=C(Cl)C(=O)c3c(O)ccc(O)c3C2=O)ccc1O` : GI50 was > 10 µM (inactive)

# GI50 (molecule: CC(=O)OC1OC(c2ccoc2)C[C@@]12C1CCC3O[C@]3(C)[C@]1(C)C[C@H](OC(C)=O)[C@H]2C (stereo not given in full) ) is > 75 µM (inactive)

// `N#Cc1c2ccc([N+](=O)[O-])cc2c(=O)n2c1[nH]c1ccc(C(F)(F)F)cc12` : GI50 value = 99.5 µM (inactive)

The molecule identified as CC1S/C(=N\N=C2/C(=O)Nc3ccc(Br)cc32)N(C2CCCCC2)C1=O (stereo not given) registered its GI50 at 1.15 µM (inactive)

O=C(NC1C2CC3CC(C2)CC1C3)c1cc(/C=C/c2ccccc2)nc(S)n1 (stereo not given) yielded GI50 of > 100 µM (inactive)

----------
# Test system: ACHN
# protocol: NCI tumour cell line growth inhibition, 48 h
The source made the active and inactive calls. No stated cut-off is given here; in the data, active = GI50 up to about 1.1 µM and inactive = higher.
Pick from 1 = active, -1 = inactive when you respond.

COc1ccc2cc(C(C)C(O)c3cc(F)c(F)c(F)c3F)ccc2c1 (stereo unspecified)    -1
CCOC(=O)NC(=O)c1cn(-c2ccc(CCOC(=O)NCCCCCCNC(=O)OCCc3ccc(-n4c(=O)[nH]cc(C(=O)NC(=O)OCC)c4=O)cc3)cc2)c(=O)[nH]c1=O    -1
CC(OC(=O)C(CC(=O)OC(C)(C)C)NC(=O)OC(C)(C)C)C(=O)OCc1ccccc1 (stereo unspecified)    -1
Cc1cc2c(cc1Cl)SC(c1ccccc1O)NS2(=O)=O (stereo unspecified)    -1
CC1C2CC(CC2(C)O)C1(C)C (stereo unspecified)    -1

What is the recorded call for this compound in the test? `C#CCN(C(=O)C(F)(F)F)c1ccc(C(=O)c2ccc(N(CC#C)C(=O)C(F)(F)F)cc2)cc1`
-1

Record request — test call for `CC(C)=CCc1c(OC(=O)c2c(C)cc(O)cc2O)cc(CO)c(CO)c1O`
-1

Call for entry O=C(O)C1C2CCC(O2)C1C(=O)N1CCCCC1 (stereo unspecified) :
-1

What call does the record list for CCC(C)(O)c1cn(-c2cccc(S(=O)(=O)O)c2)nn1 (stereo unspecified) ?
-1

Which outcome was assigned to CCC[C@H](N[S+]([O-])c1ccc(C)cc1)C(C(=O)OCC)=C(c1ccccc1)c1ccccc1 (stereo partly specified) in this test?
-1
